Where do the numbers come from? From patent US7090834B1.

Target: KDR receptor (Homo sapiens, UniProt P35968)
Sequence (P35968 20-327 limits assumed): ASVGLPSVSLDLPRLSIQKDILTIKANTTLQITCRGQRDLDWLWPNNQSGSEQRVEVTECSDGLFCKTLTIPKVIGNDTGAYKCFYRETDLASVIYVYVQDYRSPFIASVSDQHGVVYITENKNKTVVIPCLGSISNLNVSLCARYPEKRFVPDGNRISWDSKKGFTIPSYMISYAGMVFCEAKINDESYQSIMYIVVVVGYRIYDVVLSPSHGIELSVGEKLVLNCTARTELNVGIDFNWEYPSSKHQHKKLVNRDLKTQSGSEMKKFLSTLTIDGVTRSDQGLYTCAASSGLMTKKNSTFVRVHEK
Assay: KDR receptor binding ELISA (inhibition of biotinylated native VEGF (8–109) binding)
Conditions: second figure of the cell, variant midpoint concentration divided by that of native VEGF
TEST_READOUT: Relative Binding Affinity, KDR Receptor: ratio to native VEGF (8–109) (nM/1)
Unit nM/1 implied. Number only.

Entry under test: LK-VRB-1s* (ligand, human, UniProt P15692-4 27-135, looked up) APMAEGGGQNHHEVVKFEDVLRRSSCHPIETLVDIFQEYPDEIEYIFKPSCVPLMRCGGCCNDEGLECVPTEESNITMQIMRIKPHQGQHIGEMSFLQHNKCECRPKKD . Its Relative Binding Affinity, KDR Receptor: ratio to native VEGF (8–109) was 1
